# System Name: Delta-type opioid receptor (Homo sapiens)
# Sequence (P41143 whole entry): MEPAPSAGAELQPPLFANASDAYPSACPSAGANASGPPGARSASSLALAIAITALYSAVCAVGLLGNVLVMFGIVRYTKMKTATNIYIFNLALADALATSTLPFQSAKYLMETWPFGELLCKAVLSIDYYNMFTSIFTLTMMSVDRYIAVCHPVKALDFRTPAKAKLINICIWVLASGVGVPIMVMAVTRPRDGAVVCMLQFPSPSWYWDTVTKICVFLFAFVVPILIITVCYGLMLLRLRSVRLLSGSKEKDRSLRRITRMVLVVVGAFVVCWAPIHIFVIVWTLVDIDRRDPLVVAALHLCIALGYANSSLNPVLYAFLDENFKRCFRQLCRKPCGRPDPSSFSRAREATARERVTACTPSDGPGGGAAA
# Protocol Text: Inhibition of [3H]naltrindole binding to human Opioid receptor delta 1 in CHO cells
Response field label: string, one of YES (Ki strictly below 0.8 µM) or NO.

| Molecule | Answer Label |
| --- | --- |
| CN(CC1CC1)C(c1cccc(O)c1)C(C)(C)C(=O)NCCc1ccccc1 (stereo unspecified) | YES |
| CNC(c1cccc(O)c1)C(C)(C)C(=O)NCc1ccccc1 (stereo unspecified) | NO |
| CNC(c1cccc(O)c1)C(C)(C)C(=O)NCC1CCCCC1 (stereo unspecified) | NO |
| CNC(c1cccc(O)c1)C(C)(C)C(=O)NCCCc1ccccc1 (stereo unspecified) | NO |
| CNC(c1cccc(O)c1)C(C)(C)C(=O)NCc1cccc2ccccc12 (stereo unspecified) | YES |
| CNC(c1cccc(O)c1)C(C)(C)C(=O)NCCc1ccccc1 (stereo unspecified) | YES |
| CCCCN(C)C(c1cccc(O)c1)C(C)(C)C(=O)NCCc1ccccc1 (stereo unspecified) | NO |
| CNC(c1ccccc1)C(C)(C)C(=O)NCC1CCCCC1 (stereo unspecified) | NO |
| CNC(c1ccccc1)C(C)(C)C(=O)NCCc1ccccc1 (stereo unspecified) | NO |
| CNC(c1ccccc1)C(C)(C)C(=O)NCc1ccccc1 (stereo unspecified) | NO |

---

Mu-type opioid receptor (Rattus norvegicus, UniProt P33535): recorded Ki for assorted compounds
Sequence (P33535 whole entry): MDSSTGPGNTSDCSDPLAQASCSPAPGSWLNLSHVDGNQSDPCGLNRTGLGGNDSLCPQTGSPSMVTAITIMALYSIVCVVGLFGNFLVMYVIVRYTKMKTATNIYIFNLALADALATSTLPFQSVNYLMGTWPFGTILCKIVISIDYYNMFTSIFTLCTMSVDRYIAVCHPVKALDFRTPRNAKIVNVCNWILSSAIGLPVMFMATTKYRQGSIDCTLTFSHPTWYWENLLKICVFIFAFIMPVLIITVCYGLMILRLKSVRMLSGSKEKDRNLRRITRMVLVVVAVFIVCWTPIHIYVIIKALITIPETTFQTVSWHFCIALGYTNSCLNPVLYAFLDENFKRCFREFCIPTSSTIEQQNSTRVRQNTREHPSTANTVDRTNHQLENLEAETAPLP
Parameter Measured: Ki

| Compound | Observed Value |
| --- | --- |
| CNC(c1cccc(O)c1)C(C)(C)C(=O)NCC1CCCCC1 (stereo not given) | 4.4 nM |
| CN(CC1CC1)C(c1cccc(O)c1)C(C)(C)C(=O)NCCc1ccccc1 (stereo not given) | 28 nM |
| CNC(c1cccc(O)c1)C(C)(C)C(=O)NCC1CC1 (stereo not given) | 364 nM |
| CNC(c1cccc(O)c1)C(C)(C)C(=O)NCCCc1ccccc1 (stereo not given) | 12 nM |
| CNC(c1ccccc1)C(C)(C)C(=O)NCC1CCCCC1 (stereo not given) | 85 nM |
| CNC(c1ccccc1)C(C)(C)C(=O)NCCc1ccccc1 (stereo not given) | 13 nM |
| CCCCN(C)C(c1cccc(O)c1)C(C)(C)C(=O)NCCc1ccccc1 (stereo not given) | 26 nM |
| CNC(c1cccc(O)c1)C(C)(C)C(=O)NCc1ccccc1 (stereo not given) | 8.7 nM |
| CNC(c1cccc(O)c1)C(C)(C)C(=O)NCCc1ccccc1 (stereo not given) | 1.4 nM |
| CNC(c1cccc(O)c1)C(C)(C)C(=O)NCc1cccc2ccccc12 (stereo not given) | 1.4 nM |

---

# System Name: UniProt P41145
# Sequence (P41145 whole entry): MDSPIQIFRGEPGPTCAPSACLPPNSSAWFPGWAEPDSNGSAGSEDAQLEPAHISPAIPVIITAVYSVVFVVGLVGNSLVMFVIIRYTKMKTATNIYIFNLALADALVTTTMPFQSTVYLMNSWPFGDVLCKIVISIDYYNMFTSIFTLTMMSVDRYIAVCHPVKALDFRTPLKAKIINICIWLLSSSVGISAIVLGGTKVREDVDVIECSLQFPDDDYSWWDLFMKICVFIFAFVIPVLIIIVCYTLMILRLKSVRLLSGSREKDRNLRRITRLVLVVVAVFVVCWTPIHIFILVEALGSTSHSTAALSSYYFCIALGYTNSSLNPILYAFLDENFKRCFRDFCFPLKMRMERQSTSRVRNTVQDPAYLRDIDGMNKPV
pKi: −log10 of the molar value.

| Compound | pKi |
| --- | --- |
| CNC(c1cccc(O)c1)C(C)(C)C(=O)NCC1CC1 (stereo unspecified) | 7.12 |
| CNC(c1cccc(O)c1)C(C)(C)C(=O)NCCCc1ccccc1 (stereo unspecified) | 8.44 |
| CNC(c1ccccc1)C(C)(C)C(=O)NCc1ccccc1 (stereo unspecified) | 6.33 |
| CNC(c1ccccc1)C(C)(C)C(=O)NCC1CCCCC1 (stereo unspecified) | 8.92 |
| CN(CC1CC1)C(c1cccc(O)c1)C(C)(C)C(=O)NCCc1ccccc1 (stereo unspecified) | 8.54 |
| CNC(c1cccc(O)c1)C(C)(C)C(=O)NCCc1ccccc1 (stereo unspecified) | 8.20 |
| CCCCN(C)C(c1cccc(O)c1)C(C)(C)C(=O)NCCc1ccccc1 (stereo unspecified) | 7.12 |
| CNC(c1cccc(O)c1)C(C)(C)C(=O)NCc1ccccc1 (stereo unspecified) | 8.30 |
| CNC(c1cccc(O)c1)C(C)(C)C(=O)NCc1cccc2ccccc12 (stereo unspecified) | 8.89 |
| CNC(c1cccc(O)c1)C(C)(C)C(=O)NCC1CCCCC1 (stereo unspecified) | 8.24 |
| CNC(c1ccccc1)C(C)(C)C(=O)NCCc1ccccc1 (stereo unspecified) | 7.31 |

Where do the numbers come from? From ChEMBL document CHEMBL1133419.
